# protocol.text: Solubility of additive in reaction buffer / aqueous buffers
# Format: physicochemical
# setup.conditions: reaction buffer, aqueous buffer, additive 100 mM; read-out: Solubility of additive in reaction buffer at room temperature
Item-by-item account of solubility
metric: solubility

[[record]]
smiles = "Nc1cc[nH]c(=O)n1"
metric = "solubility"
observed_value = "10 to 100 mM"

[[record]]
smiles = "O=c1cc[nH]c(=O)[nH]1"
metric = "solubility"
observed_value = "10 to 100 mM"


---

# target.or.system: horseradish peroxidase (HRP) (Armoracia rusticana)
# Construct: purchased VMSI (Ventana Medical Systems, Inc.) 760-500: 253-4290, 253-4292 and 253-4293
# protocol.text: Plate assay: kinetic screening of enhancers of HRP-mediated DAB oxidation (ultraView Detection Kit, OD 455 nm)
# Assay type: biochemical
# setup.conditions: enhancer 10 mM; relative to uView Vmax without enhancement
Binary call on Percent increase of apparent Vmax of HRP: 1 (yes) from 80% upward, 0 (no) beneath that.

[[record]]
molecule = "N[C@@H](Cc1c[nH]cn1)C(=O)O"
category = "0 (no)"

[[record]]
molecule = "OB(O)O"
category = "1 (yes)"

[[record]]
molecule = "c1cncnc1"
category = "1 (yes)"

[[record]]
molecule = "Oc1ccccn1 [2-Hydroxypyridine]"
category = "1 (yes)"

[[record]]
molecule = "CC(=O)Nc1ccc(B(O)O)cc1"
category = "0 (no)"

[[record]]
molecule = "c1c[nH]cn1"
category = "0 (no)"


---

# protocol.text: Solubility of additive in reaction buffer / aqueous buffers
# Assay type: physicochemical
# setup.conditions: reaction buffer, aqueous buffer, additive 50 mM; read-out: Solubility of additive in reaction buffer at room temperature
metric: solubility

[[record]]
smiles = "O=c1cc[nH]c(=O)[nH]1"
metric = "solubility"
observed_value = "10 to 50 mM"

[[record]]
smiles = "Nc1cc[nH]c(=O)n1"
metric = "solubility"
observed_value = "10 to 50 mM"


---

# target.or.system: horseradish peroxidase (HRP) (Armoracia rusticana, UniProt P00433)
# Construct: purchased VMSI (Ventana Medical Systems, Inc.) 760-500: 253-4290, 253-4292 and 253-4293
# Sequence (P00433 31-338): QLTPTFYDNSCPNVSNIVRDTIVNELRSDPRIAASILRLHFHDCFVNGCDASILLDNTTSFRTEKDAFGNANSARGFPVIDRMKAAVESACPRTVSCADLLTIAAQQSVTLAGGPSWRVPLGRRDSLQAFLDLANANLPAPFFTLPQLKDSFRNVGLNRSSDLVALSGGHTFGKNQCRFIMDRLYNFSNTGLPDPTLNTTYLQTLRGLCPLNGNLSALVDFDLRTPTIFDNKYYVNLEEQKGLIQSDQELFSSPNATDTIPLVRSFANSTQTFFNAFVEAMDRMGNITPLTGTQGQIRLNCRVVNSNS
# protocol.text: Plate assay: kinetic screening of enhancers of HRP-mediated DAB oxidation (ultraView Detection Kit, OD 455 nm)
# Assay type: biochemical
# setup.conditions: enhancer 100 mM; no enhancer 18.50; (sat) = reaction rate saturated by start of UV-VIS analysis
Item-by-item account of Vmax (apparent, HRP-oxidized DAB)
metric: Vmax (apparent, HRP-oxidized DAB)

[[record]]
molecule = "Oc1ccccn1 [2-Hydroxypyridine]"
observed_value = "15.98 mOD/min"

[[record]]
molecule = "O=C1CC(=O)NC(=S)N1 [2-Thiobarbituric Acid]"
observed_value = "76.00 mOD/min"

[[record]]
molecule = "Oc1ncccn1 [2-Hydroxypyrimidine]"
observed_value = "148.00 mOD/min"

[[record]]
molecule = "N[C@@H](Cc1c[nH]c2ccccc12)C(=O)O [L-Tryptophan]"
observed_value = "64.00 mOD/min"

[[record]]
molecule = "[O-][n+]1cccnc1 [Pyrimidine-N-oxide]"
observed_value = "36.00 mOD/min"

[[record]]
molecule = "c1cocn1 [Oxazole]"
observed_value = "18.00 (sat) mOD/min"

[[record]]
molecule = "c1cncnc1 [Pyrimidine]"
observed_value = "36.80 (sat) mOD/min"

[[record]]
molecule = "Cc1c[nH]c(=O)[nH]c1=O [Thymine]"
observed_value = "74.00 mOD/min"

[[record]]
molecule = "N[C@@H](Cc1c[nH]cn1)C(=O)O [L-Histidine]"
observed_value = "72.00 mOD/min"

[[record]]
molecule = "c1cscn1 [Thiazole]"
observed_value = "27.05 (sat) mOD/min"

